measured_on: TXA2 synthetase (Equus caballus)
Construct: labelled arachidonic acid as substrate, thromboxane B2 measured by TLC
Sequence (A0A9L0T8T9 2-534): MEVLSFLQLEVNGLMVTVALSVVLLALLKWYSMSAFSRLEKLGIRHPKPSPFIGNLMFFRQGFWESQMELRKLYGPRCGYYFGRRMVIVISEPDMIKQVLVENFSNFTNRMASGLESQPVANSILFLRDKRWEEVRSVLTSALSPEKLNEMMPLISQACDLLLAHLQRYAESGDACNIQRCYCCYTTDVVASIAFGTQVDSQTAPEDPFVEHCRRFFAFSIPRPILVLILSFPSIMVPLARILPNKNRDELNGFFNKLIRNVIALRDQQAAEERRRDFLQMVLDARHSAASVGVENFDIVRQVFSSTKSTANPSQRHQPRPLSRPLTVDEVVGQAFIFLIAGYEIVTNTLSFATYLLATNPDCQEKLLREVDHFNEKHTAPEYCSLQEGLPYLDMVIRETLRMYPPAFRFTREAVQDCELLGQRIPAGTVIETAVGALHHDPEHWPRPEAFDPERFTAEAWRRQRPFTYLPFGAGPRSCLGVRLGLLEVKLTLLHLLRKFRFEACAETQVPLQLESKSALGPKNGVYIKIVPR
procedure_summary: Inhibition of TXA2 synthetase: thromboxane (thromboxane B2) produced from labelled arachidonic acid by homogenised horse platelets
Assay type: biochemical
condition_set: horse platelet homogenate, 100 mM Tris buffer pH 7.4; 5 min preincubation at ambient temperature; 3 min at 37° C. with arachidonic acid; read-out: ED50 (concentration of active compound to reduce the enzyme activity by 50%) (converted)
assay_metric: IC50 (µM)

CC1(C)C2CCC(Cn3ccnc3)C1C2 (centres unmarked) :: 24.5
CC1(C)C2CC=C(CCn3ccnc3)C1C2 (centres unmarked) :: 16.2
C1=CC2CC1CC2Cn1ccnc1 (centres unmarked) :: 57.4
C1=CC2CC1CC2CC(C1CC2C=CC1C2)n1ccnc1 (centres unmarked) :: 89.2
c1cn(C2CC3CCC2C3)cn1 (centres unmarked) [Example 11, 1-(Bicyclo[2.2.1]heptan-2-yl)imidazole] :: 290

[a] CC1(C)C2CC=C(Cn3ccnc3)C1C2 (centres unmarked)
[b] c1cn(CC2CC3CCC2C3)cn1 (centres unmarked)
[c] CC1(C)C2CCC(CCn3ccnc3)C1C2 (centres unmarked)
Rank order required: IC50, descending. # format: label list in the order the request specifies
a, b, c
(a: 74.1 µM, b: 28.4 µM, c: 19.7 µM)
